Origin of measurements: the nanobody polyreactivity screen of Harvey et al. (2022)

Assay: yeast display, Sf9 membrane polyspecificity reagent, FACS + sequencing; frameworks hold sequencing errors
MEASUREMENT TYPE: polyreactivity (PSR sort gate)

Known results for sequences:
[[record]]
sequence_entry = "QVQLVESGGGLVQAGGSLRLSCAASGSTFGWYAMGWYRQAPGKERELVATISTTGGRTYYADSVKGRFTISRDNAKNTVYLQMNSLKPEDTAVYYCAARAFYKRYFAFDYWGQGTQVTVSS"
result = "high polyreactivity"

[[record]]
sequence_entry = "QVQIVESGGGLVQAVGSLRLSCAASGRIFHYNSMRWYRQAPGKERELVAAITDSTGGSTYYADSVKGRFTISRDNAKNTVYLQMNSLKPEDTAVYYFAAQDYQYSDYQWWFGYWGQGTKVTVSS"
result = "low polyreactivity"

[[record]]
sequence_entry = "QVQLVESGGGLVQAGGSLRLSCAASGRIFLANAMGWYRQAPGKERELVAAISYSGGSTYYADSVKGRFTISRDNAKNTVYLQMNSLKPEDTAVYYCAADAFTWYTGRAWKYYYWGQGTQVTVSS"
result = "low polyreactivity"

[[record]]
sequence_entry = "QVQLVESGGGLVQAGGSLRLSWAAYGRNFRPNTMGWYRQAPGKEREMVAAISRSGGSTYYADSVKARFTISRDNAKNTVYLQMNSLKPEDTAVYYCAKRYGGIVGVGAYKYEYWGQGTQVTVSS"
result = "high polyreactivity"

[[record]]
sequence_entry = "QVQLVESGGGLVQAGGSLRLSCADSGRIFLTNAMGWYRQAPGKERELGATITSGGSTNYADSVKGRFTISRDNAKNTVYLQMNSLKPVDTAVYDCAADWEFGFDYWGQGTQVTVSS"
result = "low polyreactivity"

[[record]]
sequence_entry = "QVQLVESGGGIVQAGGSLRLSCAASGSNFTAYDMGWYRPAPGKDRELVAALNVSAGTTYYADSVKGRFTISRDHAKNTVYLQMNSLKPEDTAVYYCATYRSPTPYTRENIYAYWGQGTLVTVSS"
result = "low polyreactivity"


Now look at this one.
Problem: Provide measured polyreactivity (PSR sort gate) value, entry: QVQLVESGGGLVQAGGSLRLSCAASGSIFYVYAMGWYRQAPGKERELVAAITWIDGSTYYADSVKGRFTISRDNAKNTVYLQMNSLKPEDTAVYYCAAGGYFYSFYYWGQGTQVTVSS
Result: low polyreactivity

* * *

Assay: yeast display, Sf9 membrane polyspecificity reagent, FACS + sequencing; frameworks hold sequencing errors
MEASUREMENT TYPE: polyreactivity (PSR sort gate)

[[record]]
sequence_entry = "QVQLVESGGGLVQAGGSLRLSCAASGINFRYYAMGWYRQAPGKERELVARISTRGGSTYYADSVKGRFTISRDNAKNTVYLQMNSLKPEDTAVYYCAAVNGLYYHKYGYYWGQGTQVTVSS"
result = "high polyreactivity"

[[record]]
sequence_entry = "QVQLVESGGGLVQAGGSLRLSCAASGSTFRRYAMGWYRQAPGKERELVAAISSNGGSTYYADSVKGRFTISRDNAKNTVYLQMNSLKPEDTAVYYCAAYRSLDFDYWGQGTQVTVSS"
result = "high polyreactivity"


* * *

Experiment: yeast display, Sf9 membrane polyspecificity reagent, FACS + sequencing; frameworks hold sequencing errors
MEASUREMENT TYPE: polyreactivity (PSR sort gate)

Below, each entry is followed by its recorded polyreactivity (PSR sort gate) result.
[[record]]
sequence_entry = "QVQLLDSGGGLVQAGGSLRLSCAASGFIFRPYPMACYRQSPGKERELVAPITGGGSTYYADSVKGRFTISRENAKNTVYLQMNSLKPEDTAVYYCNADRRRRSGGFAGWHFQRNDFWGQGTQVTVSS"
result = "low polyreactivity"

[[record]]
sequence_entry = "QVQLVESGGGLVQAGGSLRLSCAASGYTFYYSMGWYRQAPGKERELVAAISAGGGRTYYADSVKGRFTISRDNAKNTVYLQMNSLKPEDTAVYYCNRVYRLTAYGYDYWGQGTQVTVSS"
result = "high polyreactivity"

[[record]]
sequence_entry = "QVQLVESGGGLVQAGGSLRLSCAASGSIFTGYTMGRYRQATGKERELVAAITWNGGSTYYADSVKGRFTISRDNAKNTVYLQMNSLKPEDTAVYYCAAVPYTPSPYTYGYWGQGTQVTVSS"
result = "high polyreactivity"

[[record]]
sequence_entry = "QVQLVESGGCLVQAGGSLRLSCAASGSIFSANAMGWYRQAPGKETELVAAITRGGSTNYADSVKGRFTIARDNAKNTVYLQMNSLKPEDTAVYYCNDEPDPYSSGRVRRDYDYWGQGTQVTVSS"
result = "low polyreactivity"

[[record]]
sequence_entry = "QVQLVESGGGIVQAGGSLRLSCAASGSIFITYAMGWYRPAPGKERELVAAIRDSGDRTYYADSVKGRFTISRDNAKNTVYLQMNSLKPEDTAVYYCAARIWTGRGRKLGYGYVYWGQGTQVTVSS"
result = "low polyreactivity"


From here, focus on the item given below.
Problem: Hello, please tell me recorded polyreactivity (PSR sort gate) for this one: QVQLVDSGGGLVHAGGRLGLSREDYGSTFPYYSMGWYRQAPGKERELVAAISGGGGSTYYADSVKGRFTISRDNAKNTVYLQMNSLKPEDSAVYYCNAYKYISPGDYWGQGTQVTVSS
Result: high polyreactivity

* * *

Experiment: yeast display, Sf9 membrane polyspecificity reagent, FACS + sequencing; frameworks hold sequencing errors
MEASUREMENT TYPE: polyreactivity (PSR sort gate)

As a guide, the following entries are already answered.
[[record]]
sequence_entry = "QVQLVESGGGLVQAGGSLRLSCAASGITFYFNAMGWYRQAPGKERELVAAITFSGSSTYYADSVKGRFTISRDKAKNTVYLQMNSLKPEDTAVYYCAAYFTRYDFRWHTYYYWGEGTQVTVSS"
result = "low polyreactivity"

[[record]]
sequence_entry = "QVQLVESGGGIVQAGGSLRLSCAASGSIFLGYTMGLYRQAPGKERELVAAINSSGGSTYYADSVKGRFTISRDNAKNTVYLQMNSLKPEDTAVYYCADANSILLFDSWGQGTQVTVSS"
result = "low polyreactivity"

[[record]]
sequence_entry = "QVQLVESGGGLVQAGGSLRLSCAASGSTFSYYAMGWYIQAAGKERELVADITLNGGDTYYADSVKGRFTISRDNAKNTVYLQMNSLKPEDTAVYYCAKDSTADELTGFDYWGQGTQVTVSS"
result = "low polyreactivity"

[[record]]
sequence_entry = "QVQLVESGGGLVQAGGSLRLSCAASGSTLFLYAMGWYRQAPGKERELVAAITWSGGSTYYADSVKGRFTISRDNAKNTVYLQMNSLKPEDTAVYYCAKYGRYFWNSGVDYWGQGTQVTVSS"
result = "high polyreactivity"

[[record]]
sequence_entry = "QVQLVESGGGLVQAGGSLRLSCAASGRTFLTNPMGWYRQAPGKETELVAVITSSGGTYYADSVKGRFSISRDNAKNTVYLQMNSLKPEYTEVYYCNTRQQFTLTRGVFLHNYWGQGTQVTVSS"
result = "high polyreactivity"


Problem: Complete the entry with polyreactivity (PSR sort gate) for QVQLEESGGGLVQAGGSLRLSCAASGSIFFGNDMGWYSQAPGKERELVAGISNGGRTNYADSVKGRFTISRDNAKNHVYLLMHSLKPEDTAVYYCAKHPVYIYWSRVLVGYSSWGQGTQGTVSS
Result: low polyreactivity

* * *

Test: yeast display, Sf9 membrane polyspecificity reagent, FACS + sequencing; frameworks hold sequencing errors
MEASUREMENT TYPE: polyreactivity (PSR sort gate)

[[record]]
sequence_entry = "QVQLVESGGGLVQAGGSLRLSCAASGFIFVPNAMGWYRQAPGNERELVAAIRSSGGTTYYADSVKGRFTISRDNAKNTVYLQMNSLKPEDTAVYYCAAKYTSRLNSGYSNYYWGQGTQVTVSW"
measurement_type = "polyreactivity (PSR sort gate)"
result = "high polyreactivity"

[[record]]
sequence_entry = "QVQLVESGGGLVQAGGSLRLSCAASGRTFSTYVMGWYRQAPGKEREFVAAISTGGGSTYYADSVKGRFTISRDNAKNTVYLQMNSLKPEDTAVYYCAARLKWGWPTYDYWGQGTQVTVSS"
measurement_type = "polyreactivity (PSR sort gate)"
result = "high polyreactivity"


* * *

Test: yeast display, Sf9 membrane polyspecificity reagent, FACS + sequencing; frameworks hold sequencing errors
MEASUREMENT TYPE: polyreactivity (PSR sort gate)

[[record]]
sequence_entry = "QVQLQESAGGLVQAGGSLRLRCSASGYISCDASMGWYRQAPGKERELAASITKGSSTNYADSVKGRFTIRDNAKNTVYLQMNSLKPEDTSVCYCAVTYPYWGDYTYWGQGTQVTVSS"
measurement_type = "polyreactivity (PSR sort gate)"
result = "low polyreactivity"

[[record]]
sequence_entry = "QVQLVESGGGLVQAAGSLRLSCAASGRTFSANAMGWYRQAPGKERELVATISSGGRTNYADSVKGRFTISRDNAKNTVYLQMNSLKPEDTAVYYCAKRGPYKRWYGRYDYCGQGTQVTVSS"
measurement_type = "polyreactivity (PSR sort gate)"
result = "low polyreactivity"

[[record]]
sequence_entry = "QVKHVESGGGLVKAGGSLRLSCPAAGRIIDKYAMGWYRQSPGKERELVATITSSGGSTYYADSVKGRFTISRDTAMNNVYLQMNSLKPEDTAVYYCDALDRTGYSRGETRSLYYFWGQGTQVTVSS"
measurement_type = "polyreactivity (PSR sort gate)"
result = "low polyreactivity"

